# Test system: human prostate PC3-mm2 tumor cell line
# Assay Text: In vitro cell culture growth assay (MTS), PC3-mm2
# Format: cell-based
# Reported Conditions: Homo sapiens, PC3MM2, 72 h, MTS cell growth assay, three days after drug treatment; read-out: IC50 PC3-mm2
pIC50: −log10 of the molar value.
Quick rule: pIC50 of at least 7 means t, below that means f.

| Compound | Cat |
| --- | --- |
| O=C(Nc1ccc(C(=O)N2CCC(N3CCCC3)CC2)cc1)Nc1ccc(-c2nc(N3CCOCC3)nc(N3CCOCC3)n2)cc1 | t |
| COC(=O)c1ccc(NC(=O)Nc2ccc(-c3nc(C(C)C)nc(N4CCOCC4)n3)cc2)cc1 | f |
| CCCCc1nc(-c2ccc(NC(=O)Nc3ccc(C(=O)O)cc3)cc2)nc(N2CCOCC2)n1 | f |
| O=C(Nc1ccc(C(=O)N2CCC(N3CCOCC3)CC2)cc1)Nc1ccc(-c2nc(N3CCOCC3)nc(N3CCOCC3)n2)cc1 | t |
| O=CCCc1nc(-c2ccc(NC(=O)Nc3ccncc3)cc2)nc(N2CCOCC2)n1 | f |
| O=C(Nc1ccncc1)Nc1ccc(-c2nc(CCCN3CCCC3)nc(N3CCOCC3)n2)cc1 | f |
| CCCCc1nc(-c2ccc(NC(=O)Nc3ccncc3)cc2)nc(N2CCOCC2)n1 | f |
